# Test system: SFTSV
# assay.summary: microbe, parasite or virus in culture
# Assay type: cell-based
The threshold is inclusive: Selectivity Index (CC50/IC50) of exactly 6 counts as Met; values below receive Not met.

smiles.repr | label.class
Oc1c(Cl)cc(Cl)c(Cl)c1Cc1c(O)c(Cl)cc(Cl)c1Cl | Met
CNC(=O)c1cc(Oc2ccc(NC(=O)Nc3ccc(Cl)c(C(F)(F)F)c3)c(F)c2)ccn1 | Met
Oc1cc(Cl)ccc1Oc1ccc(Cl)cc1Cl | Not met
Oc1c(Br)cc(Br)c2cccnc12 | Met
CC1=NN(c2ccc(C)c(C)c2)C(=O)/C1=N\Nc1cccc(-c2cccc(C(=O)O)c2)c1O | Not met

These data points were gathered from paper PMC6520937.
